Assay: physchem
Format: physicochemical
Conditions: phosphate buffered saline, 26 °C, aqueous buffer, kinetic from dmso stock, pH 7.4 PBS, 1.0% DMSO, 24-hour incubation at ambient temperature
Procedure: Example 108: Kinetic Solubility Analysis Buffer Preparation: 0.1 N HCl: Hydrochloric acid, 0.1 N standardized solution (MP Biomedicals part number 199569). […] The final DMSO concentration was 1.0% (v/v) and maximum theoretical compound concentration is 100 μM (for compound stock concentration of 10 mM). […] Filtrates were injected into the Antek 8060 chemiluminescent nitrogen detector for quantification. […] The filtrates were quantified with respect to this calibration curve. […]

>  <Entry smiles>
CC(C)CCCOC(=O)C(C)(C)NP(=O)(CO[C@H](C)Cn1cnc2c(N)ncnc21)NC(C)(C)C(=O)OCCCC(C)C

>  <Unit spec>
µg/mL

>  <solubility kinetic at 24 h>
38

$$$$
